Exercise: for every item that follows, state its recorded inhibition.
- Study target: Hexose transporter 1 (Plasmodium falciparum)
- Protocol details: ST_JUDE_LEISH: Cytotoxicity at 2uM final concentration against transgenic Leishmania Mexicana promastigotes LmPfHT that are glucose transport deficient and complemented with the Plasmodium falciparum hexose transporter. Activity is measured by DNA content using SYBR green in vitro
- Assay type: functional
Lab book: enter the figure in %, no units written.

Request: Identify measured inhibition corresponding to COc1cccc(-c2cnc(-c3ccncc3)nc2C2CCN(Cc3ccc(NC(C)=O)cc3)CC2)c1
Response: 4.22

Request: Fill in reported inhibition for this entry: CN(C)c1ccc(C=Cc2nc(=O)c3ccccc3o2)cc1
Response: 3.22

Request: Quote inhibition reported for Cc1nc(N)nc(N)c1OCc1cccc2ccccc12 please.
Response: 1.33

Request: Hello, please tell me recorded inhibition for this one: CCOc1cc(C=NNc2nc(C)cc(-n3nc(C)cc3C)n2)ccc1O
Response: -0.22

Request: Assign inhibition to the following record: COc1ccc2nccc([C@@H](O)CN3CCC(NCc4cc5ccccn5n4)CC3)c2c1
Response: 4.49

Request: Give me measured inhibition, please, for this compound: Cc1cc(OCCCN2CCCCC2C)ccc1NC(=O)COc1ccc(Cl)cc1C(=O)c1cc(Cl)cc(C#N)c1 (centres undefined)
Response: 78.3

Request: # return recorded inhibition for input COc1ccc(CCNc2nc(N)c3cc(OC)c(OC)cc3n2)cc1
Response: 3.91

Request: Give the reported value of inhibition for this record: Oc1cc(-c2nc(-c3ccccc3)[nH]c2-c2ccncc2)ccc1Cl
Response: 1.67

Request: // fetch inhibition given entry CC1(C)N=C(NC(=O)c2cc([N+](=O)[O-])cc([N+](=O)[O-])c2)N=C(N)N1OCc1cccc2ccccc12
Response: -0.29

Request: Look up and report measured inhibition for this entry: Oc1ccc(-c2nc3c4cc(I)ccc4c4ccc(I)cc4c3[nH]2)cc1
Response: -1.87

Request: Recall and state the measured inhibition for CC1(C)N=C(N)N=C(N)N1c1ccc(Cl)cc1 .
Response: 4.91

Request: Let me know recorded inhibition for CCOc1cc2ncnc(Nc3ccc(OCc4ccccc4OC)c(OC)c3)c2cc1OCC , thanks.
Response: 2.81

Request: Supply recorded inhibition for COc1ccc2nccc([C@@H](O)CN3CCC(NC(=O)c4ccc(OC)c(N)c4)CC3)c2c1 here.
Response: 16.7

Request: Please give the documented inhibition of CN(C)CCNCc1ccc(-c2cccc(-c3nc4ccccc4[nH]3)c2)cc1
Response: 8.93

Request: Indicate the recorded inhibition value for this compound: CC(=O)Oc1c(Cl)c(C)nc(C)c1-c1ccc(Oc2ccc(Cl)cc2)cc1
Response: 9.67

Request: Given the compound Nc1c(Cl)cc(C(O)CNCCCCCOCCc2ccc3occc3c2)cc1Cl (centres undefined) , write its reported inhibition.
Response: 3.64

Request: Entry Cc1cnc(NCCc2ccc(F)cc2)nc1NCCC(=O)Nc1ccccc1 needs its inhibition filled in; supply it.
Response: 4.76

Request: Fill in inhibition for record O=C(NC1CCN(Cc2ccccc2)CC1)c1ccc(-c2nc3cc(Cl)c(F)cc3[nH]2)s1
Response: 3.3

Request: Look up inhibition of c1cncc(NCc2ccc(-c3cc4ccncc4cc3OC3CCNCC3)s2)c1 and report it.
Response: 5.2

Request: Provide one value: measured inhibition of O=C(NCc1ccco1)c1ccc(CN2CCN(C(c3ccccc3)c3ccccc3)CC2)cc1
Response: 6.41

Request: Entry CC(C)Oc1cc2c(cc1NS(=O)(=O)c1ccc(-c3ccc(Cl)cc3)cc1F)CCN(C)CC2 needs its inhibition filled in; supply it.
Response: 0.75

Request: Provide inhibition value for the following compound: CC(=O)Nc1ccc(C(=O)Nc2ccc(-c3cccc(-c4nc5cc(F)ccc5[nH]4)c3)cc2)cn1
Response: 1.66

Request: Determine from records and report inhibition for COc1ccc2nccc(N/N=C/c3cccc([N+](=O)[O-])c3)c2c1
Response: 2.68

Request: Give the measured inhibition for O=C(Nc1ccnc(-c2cccnc2)n1)c1cc(C(F)(F)F)cc(C(F)(F)F)c1
Response: 0.27

Request: Given the compound COc1ccc(C(=O)N2CCC(CN3CCOC(c4ccccc4)(c4ccccc4)C3)CC2)cc1 , write its reported inhibition.
Response: 2.13

Request: For COc1ccccc1CN1CCC(CNC(=O)c2cc(-c3ccc(N(C)C)cc3)cs2)C1 (centres undefined) , write its inhibition.
Response: 11.8

Request: Find the measured inhibition of CC1(C)N=C(N)N=C(N)N1OCc1cccc2c1ccc1ccccc12 and report it.
Response: 2.76

Request: Fill in reported inhibition for this entry: O=C1NC(=S)N/C1=C/C=C/c1ccc([N+](=O)[O-])o1
Response: 30.9

Request: Query inhibition for CC(C)CCn1c(Sc2ccc(C#N)c([N+](=O)[O-])c2)nnc1-c1ccc(Cl)cc1
Response: 9.73

Request: Identify measured inhibition associated with CCCNCc1ccc(-c2ccc(CN(CCOC)C(=O)COc3ccccc3Cl)cc2)nc1
Response: 1.54

Request: Give recorded inhibition. CC(C)CNCc1ccc(-c2cccc(CN(CCCN3CCN(C)CC3)C(=O)/C=C/c3ccccc3)c2)cc1
Response: 5.21

Request: Please supply the value of reported inhibition for the item CCCN(C(=O)c1ccccc1C)c1nnc(-c2ccccc2C)s1
Response: 0.17

Request: For the compound O=C(Nc1cccc(CN2CCCN(Cc3ccc4c(c3)OCO4)CC2)c1)c1ccc(-c2ccccc2)cc1 , give its measured inhibition value.
Response: 3.52

Request: // fetch inhibition given entry O=C(C=Cc1ccc(Br)cc1)N1CCC(CCN2CCC(c3c[nH]c4ccccc34)CC2)CC1
Response: 8.48
